Values from the NIST ThermoML archive (doi:10.1021/je800635g)

# reported-conditions: 353.15 K; 100 kPa; Liquid; Falling or rolling sphere viscometry
± gives the expanded uncertainty stated by the source.
quantity: viscosity
Returns: string containing the number followed by the unit.

# input compound: CC(=O)O [acetic acid] ; wanted: its viscosity
0.574 ± 0.006 mPa·s

# input compound: Cc1ccc(C)cc1 [1,4-dimethylbenzene] ; wanted: its viscosity
0.34 ± 0.004 mPa·s

# input compound: Cc1ccccc1 [toluene] ; wanted: its viscosity
0.3137 ± 0.0033 mPa·s

# input compound: CCCCCCCCCC [decane] ; wanted: its viscosity
0.4514 ± 0.0048 mPa·s

---

# reported-conditions: 373.15 K; 3200 kPa; Liquid; Falling or rolling sphere viscometry
For each record, write down the corresponding viscosity.
The answer is to be given in mPa·s; state only the numeric part.

# input compound: CCCCCCCCCC [decane] ; wanted: its viscosity
0.3906

# input compound: CC(=O)O [acetic acid] ; wanted: its viscosity
0.502

# input compound: Cc1ccccc1 [toluene] ; wanted: its viscosity
0.2822

# input compound: Cc1ccc(C)cc1 [1,4-dimethylbenzene] ; wanted: its viscosity
0.305

---

# reported-conditions: 333.15 K; 800 kPa; Liquid; Falling or rolling sphere viscometry
For each record, write down the corresponding viscosity.
The answer is to be given in mPa·s; state only the numeric part.

# input compound: Cc1ccccc1 ; wanted: its viscosity
0.3839

# input compound: Cc1ccc(C)cc1 ; wanted: its viscosity
0.412

# input compound: CC(=O)O ; wanted: its viscosity
0.72

# input compound: CCCCCCCCCC ; wanted: its viscosity
0.5732

---

For each record, write down the corresponding viscosity.
# reported-conditions: 393.15 K; 1600 kPa; Liquid; Falling or rolling sphere viscometry
The answer is to be given in mPa·s; state only the numeric part.

# input compound: Cc1ccccc1 ; wanted: its viscosity
0.2397

# input compound: CCCCCCCCCC ; wanted: its viscosity
0.3216

# input compound: CC(=O)O ; wanted: its viscosity
0.402

# input compound: Cc1ccc(C)cc1 ; wanted: its viscosity
0.258

---

# reported-conditions: 333.15 K; 1600 kPa; Liquid; Falling or rolling sphere viscometry
For each record, write down the corresponding viscosity.
The answer is to be given in mPa·s; state only the numeric part.

# input compound: Cc1ccc(C)cc1 ; wanted: its viscosity
0.414

# input compound: CC(=O)O ; wanted: its viscosity
0.727

# input compound: CCCCCCCCCC ; wanted: its viscosity
0.5714

# input compound: Cc1ccccc1 ; wanted: its viscosity
0.3889

---

For each record, write down the corresponding viscosity.
# reported-conditions: 373.15 K; 800 kPa; Liquid; Falling or rolling sphere viscometry
The answer is to be given in mPa·s; state only the numeric part.

# input molecule: CC(=O)O [acetic acid] ; wanted: its viscosity
0.478

# input molecule: Cc1ccccc1 [toluene] ; wanted: its viscosity
0.2706

# input molecule: CCCCCCCCCC [decane] ; wanted: its viscosity
0.3773

# input molecule: Cc1ccc(C)cc1 [1,4-dimethylbenzene] ; wanted: its viscosity
0.297

---

For each record, write down the corresponding viscosity.
# reported-conditions: 373.15 K; 100 kPa; Liquid; Falling or rolling sphere viscometry
The answer is to be given in mPa·s; state only the numeric part.

# input compound: CC(=O)O [acetic acid] ; wanted: its viscosity
0.471

# input compound: CCCCCCCCCC [decane] ; wanted: its viscosity
0.3729

# input compound: Cc1ccccc1 [toluene] ; wanted: its viscosity
0.268

# input compound: Cc1ccc(C)cc1 [1,4-dimethylbenzene] ; wanted: its viscosity
0.292

---

# reported-conditions: 453.15 K; 1600 kPa; Liquid; Falling or rolling sphere viscometry
For each record, write down the corresponding viscosity.
The answer is to be given in mPa·s; state only the numeric part.

# input compound: CC(=O)O ; wanted: its viscosity
0.251

# input compound: Cc1ccc(C)cc1 ; wanted: its viscosity
0.17

# input compound: CCCCCCCCCC ; wanted: its viscosity
0.2072

# input compound: Cc1ccccc1 ; wanted: its viscosity
0.1517

---

For each record, write down the corresponding viscosity.
# reported-conditions: 473.15 K; 1600 kPa; Liquid; Falling or rolling sphere viscometry
The answer is to be given in mPa·s; state only the numeric part.

# input compound: CC(=O)O ; wanted: its viscosity
0.213

# input compound: Cc1ccc(C)cc1 ; wanted: its viscosity
0.159

# input compound: Cc1ccccc1 ; wanted: its viscosity
0.1353

# input compound: CCCCCCCCCC ; wanted: its viscosity
0.174

---

# reported-conditions: 333.15 K; 3200 kPa; Liquid; Falling or rolling sphere viscometry
quantity: viscosity (mPa·s)
The answer is to be given in mPa·s; state only the numeric part.

# input compound: CC(=O)O ; wanted: its viscosity
0.743

# input compound: Cc1ccc(C)cc1 ; wanted: its viscosity
0.419

# input compound: CCCCCCCCCC ; wanted: its viscosity
0.5792

# input compound: Cc1ccccc1 ; wanted: its viscosity
0.4008

---

# reported-conditions: 333.15 K; 100 kPa; Liquid; Falling or rolling sphere viscometry
For each record, write down the corresponding viscosity.
The answer is to be given in mPa·s; state only the numeric part.

# input compound: Cc1ccccc1 [toluene] ; wanted: its viscosity
0.3758

# input compound: Cc1ccc(C)cc1 [1,4-dimethylbenzene] ; wanted: its viscosity
0.409

# input compound: CC(=O)O [acetic acid] ; wanted: its viscosity
0.713

# input compound: CCCCCCCCCC [decane] ; wanted: its viscosity
0.5646

---

# reported-conditions: 333.15 K; 2400 kPa; Liquid; Falling or rolling sphere viscometry
quantity: viscosity (mPa·s)
The answer is to be given in mPa·s; state only the numeric part.

# input compound: CC(=O)O [acetic acid] ; wanted: its viscosity
0.735

# input compound: CCCCCCCCCC [decane] ; wanted: its viscosity
0.5756

# input compound: Cc1ccc(C)cc1 [1,4-dimethylbenzene] ; wanted: its viscosity
0.417

# input compound: Cc1ccccc1 [toluene] ; wanted: its viscosity
0.3955

---

# reported-conditions: 313.15 K; 100 kPa; Liquid; Falling or rolling sphere viscometry
quantity: viscosity (mPa·s)
The answer is to be given in mPa·s; state only the numeric part.

# input molecule: CCCCCCCCCC ; wanted: its viscosity
0.7051

# input molecule: CC(=O)O ; wanted: its viscosity
0.903

# input molecule: Cc1ccc(C)cc1 ; wanted: its viscosity
0.499

# input molecule: Cc1ccccc1 ; wanted: its viscosity
0.4651

---

# reported-conditions: 413.15 K; 1600 kPa; Liquid; Falling or rolling sphere viscometry
Numbers after ± are expanded uncertainties.
quantity: viscosity
Returns: string containing the number followed by the unit.

# input molecule: CC(=O)O ; wanted: its viscosity
0.34 ± 0.004 mPa·s

# input molecule: CCCCCCCCCC ; wanted: its viscosity
0.279 ± 0.003 mPa·s

# input molecule: Cc1ccccc1 ; wanted: its viscosity
0.2058 ± 0.0022 mPa·s

# input molecule: Cc1ccc(C)cc1 ; wanted: its viscosity
0.223 ± 0.002 mPa·s

---

# reported-conditions: 433.15 K; 1600 kPa; Liquid; Falling or rolling sphere viscometry
quantity: viscosity (mPa·s)
The answer is to be given in mPa·s; state only the numeric part.

# input compound: CCCCCCCCCC ; wanted: its viscosity
0.2328

# input compound: Cc1ccc(C)cc1 ; wanted: its viscosity
0.197

# input compound: CC(=O)O ; wanted: its viscosity
0.287

# input compound: Cc1ccccc1 ; wanted: its viscosity
0.1769
